Biological target: T1, HCV Core1-169 (HCV-1, UniProt P26664 1-169)
T1 construct: also called recombinant HCV core antigen
T1 sequence: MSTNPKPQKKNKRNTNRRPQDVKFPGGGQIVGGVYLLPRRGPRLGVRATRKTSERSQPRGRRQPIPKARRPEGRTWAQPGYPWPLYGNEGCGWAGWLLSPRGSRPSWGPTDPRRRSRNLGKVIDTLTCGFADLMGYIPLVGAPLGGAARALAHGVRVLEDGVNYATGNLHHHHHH
Assay: EIA, core1-169 coated on plate; also: test concentration or dose not given here
Each record here notes measured OD (A492).
Kindly provide the numeric value in OD only, without the unit symbol.

Sample answers from the record:
>>> measured_number("HCV 208A-638 (antibody, V domains shown) VH: QGQLQQPGAEFVKPGASLKLSCRASGYTFTSYWIHWVKQRPGQGLEWIGEVDPSDSYINQNEKFRGKATLTVDKSSSTAYMQLGSLTSEDSAVYYCARHYYGVLDSWGQGTALTVSS VL: QIVLTQSPTIMSASLGERVTMTCTASSSVSSSYLHWFQQKPGSSPKLWIYSTSNLASGVPPRFSGSGSGTSYSLSISSVEAEDVATYYCLQFHRSPWTFGGGAKLEIKR")
1.07
>>> measured_number("HCV 208B-560 (antibody, V domains shown) VH: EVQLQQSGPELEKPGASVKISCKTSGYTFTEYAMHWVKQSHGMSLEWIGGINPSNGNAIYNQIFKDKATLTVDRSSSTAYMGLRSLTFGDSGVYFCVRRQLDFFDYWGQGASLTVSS VL: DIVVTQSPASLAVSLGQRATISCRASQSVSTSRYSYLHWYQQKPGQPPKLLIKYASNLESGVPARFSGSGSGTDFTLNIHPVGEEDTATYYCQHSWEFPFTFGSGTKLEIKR")
1.07
>>> measured_number("HCV 208B-1024 (antibody, V domains shown) VH: EVQLVESGGDLVKPGGSLKLSCAASGFTFSNYGMSWVRQTPDKRLEWVATISSGGSYSYYPDSVKGRFTISRDNAKNILYLQMSSLKSEDTAMYYCASLYYGYGDYWGQGTAFTVSS VL: DVLMTQTPLSLPVSLGDQASISCRSSQSIVHSNGNTYLEWYLQKLGQSPKLLIYRVSNRFSGVPDRFSGSGSGTDFTLKISRVEAEDLGVYYCFQGSHVPWTFGGGTKLEIKR")
0.6

Q. Which OD (A492) is reported for this binder? HCV 208A-159 (antibody, V domains shown) VH: QLQQSGPAQVKPGASVMISCKTSGYTFTENAMHWVKQSHGKSLEWIGGVNPNNGDTIFNQKFKDKAALTVDKSSSTAFMELRSLTSEESTVYYCVRRELDFFDYWGQGTSVTVSS VL: DIVLTQSPASLAVSLGQRATISCRASQSVSTSRYSYVHWYQQKPGQPPKLLIKYAANLESGVPARFSGSGSGTDFTLNIHPVAEEDAAAYYCQHSWEFPFTFGSGTKLEIKR
A. 0.57

Q. How about HCV 208B-672 (antibody, V domains shown) VH: EVKLVESGGSLVQPGGSLKLSCAASGFNFNTYAMSWVRQTPEKRLEWVAYISNGGGNTYYVDTVKGRFTISRDNAKNTLYLRMSSLKSEDTAMYYCARHGLYWGYSMDYWGQGTSVTVSS VL: DIQMTQSPSSLSASLGERVSLTCRASQDIGGSINWLQQEPDGTIKRLIYATSSLDSGVPKRFSGSRSGSDYSLTISSLESEDFVDYYCLQYASSPPTFGGGTKLEIKR ?
A. 1.77

All figures here come from patent US20170052184A1.
